Source listed as ChEMBL document CHEMBL1955818.

# assayTarget: Alpha-2A adrenergic receptor (Homo sapiens, UniProt P08913)
# Sequence (P08913 whole entry): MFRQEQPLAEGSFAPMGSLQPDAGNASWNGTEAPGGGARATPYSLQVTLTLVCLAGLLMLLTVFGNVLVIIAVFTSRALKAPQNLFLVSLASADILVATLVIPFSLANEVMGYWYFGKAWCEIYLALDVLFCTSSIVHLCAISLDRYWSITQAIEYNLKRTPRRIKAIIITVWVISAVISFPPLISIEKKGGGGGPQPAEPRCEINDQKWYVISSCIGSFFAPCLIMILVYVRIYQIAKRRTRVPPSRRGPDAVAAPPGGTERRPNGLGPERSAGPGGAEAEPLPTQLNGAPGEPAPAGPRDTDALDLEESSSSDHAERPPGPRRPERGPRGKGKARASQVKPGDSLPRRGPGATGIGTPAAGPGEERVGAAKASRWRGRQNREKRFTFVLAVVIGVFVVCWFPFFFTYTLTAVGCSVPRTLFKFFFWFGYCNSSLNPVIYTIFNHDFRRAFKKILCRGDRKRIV
# testName: Agonist activity at human adrenoceptor aplha 2A expressed in CHO cells assessed as rate of extracellular acidification by cytosensor microphysiometric analysis
pEC50: −log10 of the molar value.
Known pEC50 of a selection of molecules
attributeMeasured: pEC50

INSERT INTO measurements (molecule, attributemeasured, obsvalue) VALUES
  ('CC(=O)c1ccccc1OC(C)C1=NCCN1 (stereo not given)', 'pEC50', 7.20),
  ('CC(Oc1ccccc1S(C)(=O)=O)C1=NCCN1 (stereo not given)', 'pEC50', 6.25),
  ('Cc1cccc(C)c1OC(C)C1=NCCN1 (stereo not given)', 'pEC50', 7.73),
  ('CC(Oc1ccccc1C=O)C1=NCCN1 (stereo not given)', 'pEC50', 7.50),
  ('CCc1cccc(CC)c1OC(C)C1=NCCN1 (stereo not given)', 'pEC50', 7.93);

----------
# assayTarget: Alpha-2C adrenergic receptor (Homo sapiens, UniProt P18825)
# Sequence (P18825 whole entry): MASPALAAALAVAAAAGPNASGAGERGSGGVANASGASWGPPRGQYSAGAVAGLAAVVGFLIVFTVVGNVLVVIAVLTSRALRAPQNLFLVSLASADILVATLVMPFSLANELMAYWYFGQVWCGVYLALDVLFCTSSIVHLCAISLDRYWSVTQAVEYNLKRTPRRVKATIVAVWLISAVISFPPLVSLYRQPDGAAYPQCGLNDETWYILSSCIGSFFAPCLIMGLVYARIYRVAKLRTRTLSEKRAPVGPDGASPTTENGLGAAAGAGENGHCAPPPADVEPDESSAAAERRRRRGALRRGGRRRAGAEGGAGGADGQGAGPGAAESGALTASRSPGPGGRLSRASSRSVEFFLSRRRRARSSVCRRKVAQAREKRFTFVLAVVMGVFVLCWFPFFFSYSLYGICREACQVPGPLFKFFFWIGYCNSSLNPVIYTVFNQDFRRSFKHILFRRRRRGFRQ
pKi: −log10 of the molar value.
attributeMeasured: pKi

INSERT INTO assay_data (compound, attributemeasured, obsvalue) VALUES
  ('CC(Oc1c(Cl)cccc1Cl)C1=NCCN1 (centres undefined)', 'pKi', 7.16),
  ('C=C(C)c1ccccc1OC(C)C1=NCCN1 (centres undefined)', 'pKi', 6.22),
  ('CC(Oc1ccccc1Br)C1=NCCN1 (centres undefined)', 'pKi', 6.55),
  ('CC(Oc1ccccc1Cl)C1=NCCN1 (centres undefined)', 'pKi', 6.31),
  ('CC(Oc1c(-c2ccccc2)cccc1-c1ccccc1)C1=NCCN1 (centres undefined)', 'pKi', 6.20),
  ('CC(=O)c1ccccc1OC(C)C1=NCCN1 (centres undefined)', 'pKi', 5.13),
  ('CC(Oc1ccccc1CC1CC1)C1=NCCN1 (centres undefined)', 'pKi', 6.56),
  ('CC(Oc1ccccc1OC1CC1)C1=NCCN1 (centres undefined)', 'pKi', 6.17),
  ('CCc1cccc(CC)c1OC(C)C1=NCCN1 (centres undefined)', 'pKi', 6.56),
  ('Cc1cccc(C)c1OC(C)C1=NCCN1 (centres undefined)', 'pKi', 6.60),
  ('CCc1ccccc1OC(C)C1=NCCN1 (centres undefined)', 'pKi', 6.54),
  ('COc1ccccc1OC(C)C1=NCCN1 (centres undefined)', 'pKi', 6.08),
  ('CC(Oc1ccccc1S(C)(=O)=O)C1=NCCN1 (centres undefined)', 'pKi', 5.42),
  ('CC(Oc1ccccc1C=O)C1=NCCN1 (centres undefined)', 'pKi', 5.06);

----------
Known Intrinsic activity of a selection of compounds
# assayTarget: Alpha-2B adrenergic receptor (Homo sapiens)
# Sequence (whole entry): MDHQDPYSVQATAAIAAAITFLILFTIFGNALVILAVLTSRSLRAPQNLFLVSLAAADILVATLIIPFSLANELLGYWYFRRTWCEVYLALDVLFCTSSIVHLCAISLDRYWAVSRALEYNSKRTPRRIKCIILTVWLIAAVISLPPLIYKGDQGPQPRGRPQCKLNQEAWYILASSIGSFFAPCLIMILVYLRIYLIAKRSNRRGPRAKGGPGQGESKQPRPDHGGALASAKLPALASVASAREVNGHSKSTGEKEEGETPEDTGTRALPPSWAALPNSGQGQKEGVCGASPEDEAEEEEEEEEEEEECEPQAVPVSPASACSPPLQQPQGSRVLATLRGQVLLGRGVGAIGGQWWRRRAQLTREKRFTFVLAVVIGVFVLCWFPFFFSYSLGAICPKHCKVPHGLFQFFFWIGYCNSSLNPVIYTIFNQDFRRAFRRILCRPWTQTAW
# testName: Intrinsic activity at human adrenoceptor aplha 2B expressed in CHO cells by cytosensor microphysiometric analysis relative to (-)-noradrenaline
# Type: cell-based
attributeMeasured: Intrinsic activity

INSERT INTO assay_data (compound, obsvalue) VALUES
  ('Cc1cccc(C)c1OC(C)C1=NCCN1 (stereo not drawn)', 0.8),
  ('CC(Oc1ccccc1C=O)C1=NCCN1 (stereo not drawn)', 0.5),
  ('CC(Oc1ccccc1Cl)C1=NCCN1 (stereo not drawn)', 0.44),
  ('CCOc1ccccc1OC(C)C1=NCCN1 (stereo not drawn)', 0.5),
  ('COc1ccccc1OC(C)C1=NCCN1 (stereo not drawn)', 0.5),
  ('C=COc1ccccc1OC(C)C1=NCCN1 (stereo not drawn)', 0.45),
  ('CC(C)Oc1ccccc1OC(C)C1=NCCN1 (stereo not drawn)', 0.5),
  ('CCc1ccccc1OC(C)C1=NCCN1 (stereo not drawn)', 0.5),
  ('CC(Oc1c(Cl)cccc1Cl)C1=NCCN1 (stereo not drawn)', 0.8),
  ('CC(Oc1ccccc1Br)C1=NCCN1 (stereo not drawn)', 0.4),
  ('CC(Oc1ccccc1C(C)C)C1=NCCN1 (stereo not drawn)', 0.54),
  ('C=CCc1cccc(CC=C)c1OC(C)C1=NCCN1 (stereo not drawn)', 0.65),
  ('C=C(C)c1ccccc1OC(C)C1=NCCN1 (stereo not drawn)', 0.4);

----------
pKi: −log10 of the molar value.
Measurement record for Alpha-2C adrenergic receptor (Homo sapiens, UniProt P18825); quantity recorded: pKi.
attributeMeasured: pKi

INSERT INTO assay_data (compound, obsvalue) VALUES
  ('CC(C)Oc1ccccc1OC(C)C1=NCCN1 (stereo not given)', 6.40),
  ('CCOc1ccccc1OC(C)C1=NCCN1 (stereo not given)', 6.12),
  ('CC(Oc1ccccc1C(F)(F)F)C1=NCCN1 (stereo not given)', 6.01),
  ('CC(Oc1ccccc1C(C)C)C1=NCCN1 (stereo not given)', 6.34),
  ('C=CCc1cccc(CC=C)c1OC(C)C1=NCCN1 (stereo not given)', 6.89);

----------
Known Intrinsic activity of a selection of compounds
# assayTarget: Alpha-2B adrenergic receptor (Homo sapiens) (UniProt P18089)
# testName: Intrinsic activity at human adrenoceptor aplha 2B expressed in CHO cells by cytosensor microphysiometric analysis relative to (-)-noradrenaline
# Assay type: cell-based
attributeMeasured: Intrinsic activity

INSERT INTO results (compound, obsvalue) VALUES
  ('CC(Oc1ccccc1S(C)(=O)=O)C1=NCCN1 (configuration not stated)', 0.45),
  ('CC(Oc1c(-c2ccccc2)cccc1-c1ccccc1)C1=NCCN1 (configuration not stated)', 0.6),
  ('CC(Oc1ccccc1OC1CC1)C1=NCCN1 (configuration not stated)', 0.6),
  ('CC(Oc1ccccc1CC1CC1)C1=NCCN1 (configuration not stated)', 0.7),
  ('CC(Oc1ccccc1C(F)(F)F)C1=NCCN1 (configuration not stated)', 0.4),
  ('CC(=O)c1ccccc1OC(C)C1=NCCN1 (configuration not stated)', 0.6),
  ('CCc1cccc(CC)c1OC(C)C1=NCCN1 (configuration not stated)', 0.8);

----------
# assayTarget: UniProt:P18089
# testName: Agonist activity at human adrenoceptor aplha 2B expressed in CHO cells assessed as rate of extracellular acidification by cytosensor microphysiometric analysis
# Type: functional, cell-based
attributeMeasured: EC50

INSERT INTO measurements (compound, assaytarget, attributemeasured, obsvalue) VALUES
  ('CCc1cccc(CC)c1OC(C)C1=NCCN1 (stereo not given)', 'UniProt:P18089', 'EC50', '1000 nM'),
  ('CC(Oc1ccccc1Cl)C1=NCCN1 (stereo not given)', 'UniProt:P18089', 'EC50', '162 nM'),
  ('COc1ccccc1OC(C)C1=NCCN1 (stereo not given)', 'UniProt:P18089', 'EC50', '100000 nM'),
  ('C=CCc1cccc(CC=C)c1OC(C)C1=NCCN1 (stereo not given)', 'UniProt:P18089', 'EC50', '501 nM'),
  ('CC(Oc1ccccc1CC1CC1)C1=NCCN1 (stereo not given)', 'UniProt:P18089', 'EC50', '3310 nM'),
  ('CC(Oc1ccccc1C(F)(F)F)C1=NCCN1 (stereo not given)', 'UniProt:P18089', 'EC50', '240 nM'),
  ('Cc1cccc(C)c1OC(C)C1=NCCN1 (stereo not given)', 'UniProt:P18089', 'EC50', '1480 nM'),
  ('CCc1ccccc1OC(C)C1=NCCN1 (stereo not given)', 'UniProt:P18089', 'EC50', '10000 nM'),
  ('C=C(C)c1ccccc1OC(C)C1=NCCN1 (stereo not given)', 'UniProt:P18089', 'EC50', '1580 nM'),
  ('CC(Oc1c(-c2ccccc2)cccc1-c1ccccc1)C1=NCCN1 (stereo not given)', 'UniProt:P18089', 'EC50', '200 nM'),
  ('C=COc1ccccc1OC(C)C1=NCCN1 (stereo not given)', 'UniProt:P18089', 'EC50', '3160 nM'),
  ('CC(Oc1ccccc1S(C)(=O)=O)C1=NCCN1 (stereo not given)', 'UniProt:P18089', 'EC50', '10000 nM'),
  ('CC(Oc1ccccc1OC1CC1)C1=NCCN1 (stereo not given)', 'UniProt:P18089', 'EC50', '12900 nM'),
  ('CC(=O)c1ccccc1OC(C)C1=NCCN1 (stereo not given)', 'UniProt:P18089', 'EC50', '295 nM'),
  ('CC(Oc1ccccc1Br)C1=NCCN1 (stereo not given)', 'UniProt:P18089', 'EC50', '316 nM'),
  ('CC(Oc1ccccc1C=O)C1=NCCN1 (stereo not given)', 'UniProt:P18089', 'EC50', '316 nM'),
  ('CC(Oc1ccccc1C(C)C)C1=NCCN1 (stereo not given)', 'UniProt:P18089', 'EC50', '251 nM'),
  ('CC(Oc1c(Cl)cccc1Cl)C1=NCCN1 (stereo not given)', 'UniProt:P18089', 'EC50', '126 nM'),
  ('CCOc1ccccc1OC(C)C1=NCCN1 (stereo not given)', 'UniProt:P18089', 'EC50', '3160 nM'),
  ('CC(C)Oc1ccccc1OC(C)C1=NCCN1 (stereo not given)', 'UniProt:P18089', 'EC50', '1740 nM');
